Provenance of the data: a melting point compilation (Tetko et al.; mined from patent text by program, amines drawn as free bases though some values may be those of a salt)

Overview of reported melting point across a group of compounds:

> print(dat)
                                   compound       quantity    assay.value
1         CCOC(=O)Cc1nnc(-c2ccccn2)[nH]c1=O  melting point  136 to 137 °C
2  CNC(=S)C1c2cc([N+](=O)[O-])ccc2OC(C)(C)C1O (stereo not given)  melting point  203 to 207 °C
3  C=C1SC(SCc2ccccc2C(=COC)C(=O)OC)=NC1(C)C  melting point         101 °C
4               CCc1nn2ccccc2c1[N+](=O)[O-]  melting point  118 to 121 °C
5          Cn1c(=O)n(C2CCNCC2)c2ccc(Cl)cc21  melting point         201 °C

Q) Bench note: what melting point did O=C1C(CCC(O)c2ccc(F)cc2)C(c2ccc(-c3ccccc3O)cc2)N1c1ccc(F)cc1 (stereo not given) show?
A) 101 °C

Q) Also CCCN(Cc1ccc(-c2ccccc2-c2nc(=O)s[nH]2)cc1)c1nc2ccccc2cc1C(=O)O , if possible.
A) 118 to 124 °C

Q) Also COc1cc2c(cc1OC)/C(=N/OCc1ccc([N+](=O)[O-])cc1)CC2 ?
A) 139 to 144 °C

Q) Please answer likewise for CCCn1c(=O)c2c(nc(C=Cc3cc(C)c(C)cc3S(=O)(=O)O)n2C)n(CCC)c1=O
A) > 280 °C

Q) What do we get for Cn1cc(-c2c(-c3ccccc3)nn3ccncc23)ccc1=O ?
A) 168 to 169 °C

---

Property: melting point; scope: individual compounds

For orientation, consider the following solved cases.
> print(dat)
                                   compound    assay.value
1  COc1cc2c(cc1C(F)(F)F)N(C(=O)Nc1cccs1)CC2  240 to 244 °C
2            COc1nn(C(=S)Oc2ccccc2)c(=O)n1N         158 °C
3  CC(C)(C)c1ccc(CNC(=O)NCc2ccc(NS(C)(=O)=O)c([N+](=O)[O-])c2)cc1  177 to 178 °C

Now, please, on to the next compound.
Q) Reported melting point, compound COc1ccccc1NC(=O)Nc1nc(Oc2ccc3ccccc3c2)nc(N(CCC(=O)O)Cc2cccc(Cl)c2)n1 : ____
A) 215 to 218 °C

---

quantity: melting point

Known melting point results, listed for orientation:
> print(dat)
                                   molecule       quantity    assay.value
1  Cc1ccc(C(=O)NC(NC(=S)Nc2cccc([N+](=O)[O-])c2)c2ccccc2)cc1 (stereo not given)  melting point  170 to 172 °C
2  COC(=O)c1ccc(NC(=O)/C=C/c2c(C)noc2-c2ccccc2)cc1  melting point  174 to 175 °C
3  CCc1nc2c(N)nc3ccc(O)cc3c2n1CCCCNS(C)(=O)=O  melting point  128 to 130 °C
4  CC(C)(C)OC(=O)c1ncn2c1[C@@H]1CCN1C(=O)c1c(Cl)cccc1-2  melting point  235 to 236 °C
5  C/C=C/C[C@@H](C)[C@@H](O)[C@H](NC)C(=O)O  melting point  228 to 233 °C

Q) melting point for CC(=O)N1CCC(n2cnc3ccc(-c4nnc(C)o4)cc32)CC1 ?
A) 228 to 229 °C

Q) Also check CC1(C)Oc2cc(N)c([N+](=O)[O-])cc2[C@@H](N2CCCC2=O)[C@@H]1O (relative stereo)
A) 310 to 313 °C

Q) Let us now turn to O=S1(=O)c2cccc3cccc(c23)N1CCCN1CC=C(c2ccc(O)cc2)CC1
A) 198 °C

Q) Moving on to the next molecule: OCC1CCc2cc(OCc3ccccc3)ccc2O1 (racemic)
A) 80 to 82 °C

Q) Similarly, CC(=O)N1c2ccc(F)cc2CC1C(N)=O (stereo not given) ?
A) 232 to 235 °C

---

Each entry below carries its recorded melting point.

# count of solved cases: 2
> print(dat)
                                   compound    assay.value
1  CCn1c(=O)c2c(nc(/C=C/c3ccc(O)c(C)c3C)n2C)n(CC)c1=O  240 to 242 °C
2    O=C1C(=O)N2CCCc3cc([N+](=O)[O-])cc1c32  198 to 199 °C

Q) Requested field: melting point. Item: COc1cc(C)c(Br)cc1C
A) 38.4 °C

Q) For CCOC(=O)c1ccc(Cl)c(Cl)c1 then?
A) 33 to 35 °C

Q) Moving on to NC(=O)c1nccn1C1Cc2c(Cl)cccc2C1=O (stereo not drawn)
A) 90 °C

---

quantity: melting point

# count of solved cases: 9
> print(dat)
                                   compound    assay.value
1  Cc1ccc(CNc2nc(OCC(F)(F)F)nc(Oc3cccc(C(F)(F)F)c3)n2)o1  116 to 118 °C
2  COc1cc(-c2nc(N)sc2CCC2CCC(C)(C)CC2)c(OC)cc1C  136 to 138 °C
3  COC(=O)c1ccc(/C=C(\C)c2ccc3c(c2)SC(C)(C)S3)cc1    86 to 87 °C
4               O=C1NCc2cc(C(=O)CCCl)ccc2N1       > 270 °C
5   CNC(=NC#N)NCc1cccc(-c2csc(N=C(N)N)n2)n1  245 to 246 °C
6  O=C(NCCc1ccccc1)c1c(Cl)ccc2nc(N3CCC(C(=O)O)CC3)ccc12  260 to 262 °C
7  O=C1CCC(N2C(=O)c3cccc(NC(=O)c4cccc(F)c4)c3C2=O)C(=O)N1 (stereo not given)  260 to 262 °C
8  COC(=O)CCCNC(=O)C(CO)NS(=O)(=O)c1ccc(Cl)cc1 (racemic)  119 to 121 °C
9            Brc1cnc(N2CCCC2)c(OCC2CCCC2)n1    54 to 55 °C

Q) Endpoint output: melting point of CCCCCCC(C)(C)c1cc(O)c(C2=C(CCO)CCC(C)C2)c(O)c1 (stereo not given) . Value?
A) 83 to 86 °C

---

# melting point per record follows

The cases that follow already have their melting point on record.
> print(dat)
                                   compound    assay.value
1  CCOC(=O)Nc1ncc(-c2nc3ccccc3c(=O)n2-c2ccccc2OC)s1  263 to 264 °C
2  COc1ccc(C2CCCCC2)cc1-c1csc(NC(=O)N2CCN(C[C@@H]3CCCN(C4CC4)C3)CC2)n1          88 °C
3  COc1ccc(Nc2nc(NC3CCCCCC3)nc(Oc3ccc(C#CC(C)(C)O)cc3)n2)cc1Cl  132 to 134 °C
4  CN(c1ccc(F)c(C(F)(F)F)c1)c1nccc(-c2ccc(F)c(C(F)(F)F)c2)n1    83 to 84 °C
5  Cc1cnc(NC(=O)C2=C(O)c3ccc4ccccc4c3S(=O)(=O)N2C)s1  249 to 250 °C

Q) Which value of melting point has been reported for Cc1[nH]c2ccc(F)cc2c1CCC(=O)N1CCN(c2ccccc2)CC1 in the records?
A) 170 to 172 °C

Q) Subsequent entry: O=Cc1c[nH]c2c1ccc1c3cc(F)ccc3[nH]c12
A) > 250 °C

Q) What about O=C(Nc1ccccc1)O[C@@H]1CN=C(c2ccc(NC(=O)C(F)(F)F)cc2)O[C@H]1c1ccccc1 (racemic) ?
A) 210 °C

Q) Then O=C(Nc1cccc(S(=O)(=O)NCc2ccccn2)c1)c1cnn2c(C(F)(F)F)cc(-c3ccc(C(F)(F)F)cc3)nc12 ?
A) 229 °C

Q) Can you handle O=C(O)c1cc2cc(O)c(O)cc2nc1C(=O)O next?
A) > 300 °C

Q) Queued: COc1cc2c3ccc(OC)c(OC)c3n(C(=O)c3cccc([N+](=O)[O-])c3)c2cc1OC
A) 187 to 191 °C

Q) Here is the next compound: O=C(O)c1cccnc1Oc1ccc(-c2nnn[nH]2)cc1
A) 225 to 230 °C

Q) How about COc1ccc(Cn2ccnc2S)cc1Br ?
A) 188 °C

Q) Let us now turn to OC(CNCc1ccccc1)c1ccc(OCc2ccccc2)c(F)c1 (stereo unspecified)
A) 113 to 114 °C

Q) What about this compound? CCOc1nn(C(=O)NS(=O)(=O)c2c(C)csc2C(=O)OC)c(=O)n1C
A) 169 °C

Q) Can you check O=C(O)C(O)C1CCN(Cc2ccccc2)C1 (stereo unspecified) next?
A) 174 to 176 °C

Q) Proceed to CNC(=O)NCCSCc1csc(CN(C)C)n1
A) 56 to 59 °C

Q) // next record OCc1cc2c3ccccc3n(Cc3ccccc3)c2cn1
A) 120 to 122 °C
